From: paper PMC10933169

- Test system: MCF7 (breast carcinoma) cells
- assay info: MTT cytotoxicity assay, MCF7
- Assay type: cell-based
- condition context: Homo sapiens, 48 h treatment
measure: pIC50
Answers are plain numbers, as −log10 of the molar value.

Look up pIC50: CCC=CCCOC1OC(CO)C(O)C(O)C1O [Compound 1, (Z)-3-hexenyl-β-D-glucopyranoside]
3.96

---

- Tested on: Panc1 (pancreatic carcinoma) cells
- assay info: MTT cytotoxicity assay, Panc1
- Assay type: cell-based
- condition context: Homo sapiens, PANC-1, 48 h treatment
Exercise: for every item that follows, state its recorded pIC50.
One number for each entry, as −log10 of the molar value.

Consider the reported pIC50 for these compounds:
compound	pIC50
CCC=CCCOC1OC(CO)C(O)C(O)C1O [Compound 1, (Z)-3-hexenyl-β-D-glucopyranoside]	5.12
O=C(O)c1cc(O)c(O)c(O)c1	4.66

For the next question, use this compound.
Look up pIC50: `Oc1cccc(O)c1O`
3.70
